test system: Fibroblast; assay: Multiplex assay against human fibroblast; type: toxicity, cell-based; details: 24 h, 10 µM, compound concentration 10 uM, replicate 1
Each entry falls in a class defined on Population Pyknosed Nuclei (%); the bands are band 1 (below 10%), band 2 (10% to below 20%), band 3 (20% or more)

Worked examples follow.
molecule	label
CC(C)(C)c1cc(NC(=O)Nc2ccc(-c3cn4c(n3)sc3cc(OCCN5CCOCC5)ccc34)cc2)no1 [QUIZARTINIB]	band 1
CCc1cc2cc(NS(=O)(=O)c3ccc(C#N)cc3)ccc2n(CC)c1=O	band 3
CC(=O)Nc1cccc2c1c(Sc1ccc(Cl)cc1)c(C)n2CC(=O)O [AZD1981]	band 2
Cc1cccc(NC(=O)CN2CCC(c3ccccn3)CC2)c1.Cl.Cl	band 1
CN[C@@H](C)C(=O)N[C@H](C(=O)N1CCC[C@H]1C(=O)Nc1snnc1-c1ccccc1)C1CCCCC1 [GDC-0152]	band 3
N#Cc1c(Oc2cccc(OS(=O)(=O)CCCC(F)(F)F)c2)cccc1C(F)(F)F	band 3
CN1CCN(c2cc(-c3ccccc3)nc(N)n2)CC1	band 2
O=C1[C@H](Cc2ccc(O)cc2)N2C(=O)CCN(C(=O)NCc3ccccc3)[C@H]2CN1Cc1cccc2ccccc12	band 3
Cc1sc2c(c1C)C(c1ccc(Cl)cc1)=N[C@@H](CC(=O)NCCCCCCCCNC(=O)COc1cccc3c1C(=O)N(C1CCC(=O)NC1=O)C3=O)c1nnc(C)n1-2 (stereo partly drawn)	band 3
CCCCCC(O)/C=C/[C@H]1C(=O)CC(O)C1C/C=C\CCCC(=O)O (stereo partly drawn)	band 1

Request: Bin this entry: COc1ccccc1N1CCN(C[C@@H](C(=O)NC(C)(C)C)c2ccccc2)CC1.Cl.Cl
Response: band 2

Request: Moving on to the next molecule: CCCCC1=NC2(CCCC2)C(=O)N1Cc1ccc(-c2ccccc2-c2nnn[nH]2)cc1 [IRBESARTAN]
Response: band 2

Request: Please do the same for Cl.N=C(N)NC(=O)Cc1c(Cl)cccc1Cl [GUANFACINE HYDROCHLORIDE] as well.
Response: band 2

Request: C[C@H](N)COC(=O)[C@@H](CCCCN)NC(=O)Cc1c(-c2ccc3ccccc3c2)[nH]c2c1ccc1ccccc12 , same question.
Response: band 2

Request: What do we get for COC[C@@H](c1ccc(C(F)(F)F)cc1)N1CCN(C2(C)CCN(C(=O)c3c(C)ncnc3C)CC2)C[C@@H]1C.O=C(O)/C=C\C(=O)O [VICRIVIROC MALEATE] ?
Response: band 2

Request: Now try CCCOc1ccc2[nH]cc(C3=CCNCC3)c2n1.Cl .
Response: band 2

Request: Cool, now CCCCC(=O)N(Cc1ccc(-c2ccccc2-c2nnn[nH]2)cc1)[C@H](C(=O)O)C(C)C
Response: band 3

Request: Consider next the molecule CN(C)C(=O)Cn1cc(-c2ccc(-c3cncc4ccccc34)cc2)cn1 in the same way.
Response: band 2

Request: Also check Cc1noc(-c2ccc(-c3ccc(CC(=O)O)cc3)cc2)c1NC(=O)O[C@H](C)c1ccccc1Cl
Response: band 2
